molecular target: Human recombinant HDAC1 (Homo sapiens, UniProt Q13547); assay: HDAC isomer assay, Fluor-de-Lys, HDAC1; conditions: Example 6, FIG. 18; 2 mg/mL formulation in 5% DMSO/40% PEG 400/55% PBS; read-out: IC50 against HDAC1 protein
Sequence (Q13547 whole entry): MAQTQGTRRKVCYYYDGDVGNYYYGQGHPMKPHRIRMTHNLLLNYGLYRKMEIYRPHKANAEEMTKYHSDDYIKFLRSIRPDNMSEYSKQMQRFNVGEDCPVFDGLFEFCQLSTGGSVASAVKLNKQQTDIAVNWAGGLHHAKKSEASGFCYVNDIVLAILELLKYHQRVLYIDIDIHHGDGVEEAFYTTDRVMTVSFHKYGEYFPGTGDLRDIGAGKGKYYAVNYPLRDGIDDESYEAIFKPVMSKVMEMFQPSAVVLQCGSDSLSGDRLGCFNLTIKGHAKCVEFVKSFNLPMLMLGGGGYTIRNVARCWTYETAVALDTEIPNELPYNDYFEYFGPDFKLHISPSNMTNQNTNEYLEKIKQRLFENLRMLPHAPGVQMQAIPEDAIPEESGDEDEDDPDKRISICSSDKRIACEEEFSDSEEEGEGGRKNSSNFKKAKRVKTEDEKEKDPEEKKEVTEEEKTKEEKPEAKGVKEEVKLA
Property Measured: IC50
Note: state the figure and append the unit.

Exam item: Field request: IC50 | item: O=C(CCCCCCC(=O)Nc1cccc2c1CN(C1CCC(=O)NC1=O)C2=O)NO (stereo not shown)
Marked response: 1.54 µM

----------
target: Human recombinant HDAC3 (Homo sapiens, UniProt O15379); assay: HDAC isomer assay, Fluor-de-Lys, HDAC3; conditions: Example 4; FIG. 10
Sequence (O15379 whole entry): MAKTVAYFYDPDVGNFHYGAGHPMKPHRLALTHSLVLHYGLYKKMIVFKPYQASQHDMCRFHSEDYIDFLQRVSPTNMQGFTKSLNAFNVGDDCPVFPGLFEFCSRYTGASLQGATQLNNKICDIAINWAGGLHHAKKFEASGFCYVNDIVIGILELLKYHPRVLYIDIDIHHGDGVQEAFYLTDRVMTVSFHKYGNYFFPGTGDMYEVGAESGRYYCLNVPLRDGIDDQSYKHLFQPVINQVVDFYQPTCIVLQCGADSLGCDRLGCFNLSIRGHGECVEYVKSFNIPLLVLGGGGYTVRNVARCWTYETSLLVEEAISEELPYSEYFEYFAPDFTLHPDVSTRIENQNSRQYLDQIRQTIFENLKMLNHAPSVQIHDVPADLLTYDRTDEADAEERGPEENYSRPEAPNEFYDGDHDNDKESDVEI
Sequence (Q9Y618 395-489 partner limits assumed): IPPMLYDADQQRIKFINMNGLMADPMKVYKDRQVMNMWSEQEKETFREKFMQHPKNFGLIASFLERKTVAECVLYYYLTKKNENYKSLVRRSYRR
Property Measured: pEC50
# pEC50: negative log10 of molar concentration; output just the value

Exam item: Field request: pEC50 | item: O=C(CCCCCCC(=O)Nc1cccc2c1CN(C1CCC(=O)NC1=O)C2=O)NO (stereo not shown)
Marked response: 5.51
